Kindly supply the reported apparent KD of K4 kissing-loop reporter values for the records listed here.
- Test system: K4 kissing-loop RNA reporter;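 also: bound reporter read as fluorescence of individual clusters on recovered sequencing chips by microscopy, with normalized cluster intensities fitted with a binding model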
- protocol-notes: apparent KD of K4 kissing-loop reporter; higher = weaker reporter binding
- run-conditions: Eterna round: R107; input ligand: arginine 13.2 mM
# number then unit; no other words

Reference set (5 entries):
GUAGUUGCGCAAGGAUAUUAGUUAAGUGAUGUUUGAUUCGGUAUUGUUUACGUACACUGACCCGAUUAAGAAGGUGCGGGCAGCG [theeternabot_exclusion_KL_FMN_B_50] | 582 nM
AGGAGUGAUGUUCCUACAUAGACGGUCCGACGAGGACCGGUACGGCCGCCACUCGCGUCCCAGUGAUGUUGGGAUUCAACGUACA [Exclusion Tryptophan A Gf 15] | 150 nM
UGUAUAGUCAGAAGGAGCGUGAACGAUCGAGAAUCGAUCAGCCAGUGAUGUUGGCAGGAAUCACAGGUAGGUCGCUGACUGUACA [Arg B SS t3] | 208 nM
AAUUGAGUGACGGCCGCCACUAGAGUGAUUUUUUUGUUUGAGUGAUGUUUUGAUGUUUGAUUUUGUAGGACCGGGUUGAGUGAUG [qqxzmullin] | 306 nM
UUUAUUAAGACGGCCGCCACUGAAUUAGAGUGAUGUUCUAAAAUUUUUAAUUUUUUUUUUUUCAGCAGGACCGGGUCAAUUAUUA [JR_SSTryptoB_Sub012] | 95.3 nM

If you can, please state the reported apparent KD of K4 kissing-loop reporter value of CGUUUAUAGCAGGAUACCAGUACCCAUAAAGUACGUUAAUAGUAGAGUGAUGUUCUAAAGUACCCUUGGCAGCUUCCCGUGACCC [ExTheophylB.W] .
160 nM

---

Kindly supply the reported apparent KD of MS2 coat protein values for the records listed here.
- Tested on: MS2 coat protein
- protocol-notes: apparent KD of MS2 coat protein; designed switch direction (-1 OFF switch, 1 ON switch): -1; higher = weaker reporter binding
- run-conditions: input ligand: FMN 200 uM
One number for each entry, in nM.

Reference set (4 entries):
AUGUUACUCUGAGGAUAUUGUUUAUUCUUCUCACAUGAGGAUCACCCAUGUUUCCAUGUUAACCGCAAGAAGGCAGUUUUGUUU [JR_ExcNG2_Sub029] (Eterna round: R96, puzzle: Exclusion NG 2) | 46.1
UAAAACAGAGGAUAUCGCUUGGUAAACAUGAGGAUCACCCAUGUGGUCUCGGUGGAUACCCGAGAAGGCUGAGCGU [Xeraisbece] (Eterna round: R97, puzzle: Exclusion 5) | 19.5
AACCAGCGAGGAUAUGCUUGCGCGUGUUCUAGUUGUAAUCGACUUGAGGAUCACCCAAGUAGAAGGCGCUGCCG [EX2 #50] (Eterna round: R97, puzzle: Exclusion 2) | 103
UGAGUGGUGCGAGGAUAUACAUGAGGAUCACCCAUGUAAACGUGUGAGGCUUUGCCUCACACGAUGUAGAAGGCGCACUACUCU [Mat - Exclusion NG 2 - Mod of JL - D13] (Eterna round: R96, puzzle: Exclusion NG 2) | 15.6

Hello, I would appreciate it if you could give apparent KD of MS2 coat protein for each entry below.
1. GAAAACGCAGAGGAUAUAUCAGAUCAAAGCUGCAUAGAAGGCUGCACAUGAGGAUCACCCAUGUGGUCUUCAAU [Mat - Exclusion 6 - JL Mod - D5] (Eterna round: R97, puzzle: Exclusion 6)
2. UACACUGCAUGAGGAUCAAACAUGAGGAUCACCCAUGUAUAGCAGGCUUUUUGUGCGUCUUAUAAUUAUGUAGUGUA [Electric Eye 18 - Jieux - Sensor, turn-off variant 1] (Eterna round: R97, puzzle: Sensor, turn-off variant 1)
3. ACUAGGAGAUUAGGAUAUCUAUCUCACAUGAGGAUCACCCAUGUAUAAGCGUCCUAAAGGUGGAUGGAGAAGGGAUGUCCGAAG [Eternabot solution 13] (Eterna round: R96, puzzle: Exclusion NG 2)
4. UAGUAUCUUCAGGAUAUCAGUGGAAAACACGUAUGAGAAGGGAAGACAUGAGGAUCACCCAUGUAAAGGGUCCG [BotMod 11 - Jieux - Exclusion 6] (Eterna round: R97, puzzle: Exclusion 6)
5. ACAUGAGGAUCACCCAUGUCCGGCUGGUCCGUCUCGGCUGUCGAGGAUAUAGCUCGGUGUCCGCGCUAGAAGGUGGGAGCUGGU [Aenatbe mod 68] (Eterna round: R96, puzzle: Exclusion NG 3)
6. CACCGUUACAGAGGAUAUGUUACAUGAGGAUCACCCAUGUAAUAAAUGAGAAUUUCGAAUGUAAUACAGAAGGCUGGAAUCGGC [Ostracism 75 - Jieux - Exclusion NG 2] (Eterna round: R96, puzzle: Exclusion NG 2)
7. GGUUUGGGAGGAUAUGGUUUUAAUAACAUGAGGAUCACCCAUGUAAAUAGAUCCUCAAGGCCAGAAGGCUCAAACC [-26.1, -25.22 kcal, A 33%] (Eterna round: R97, puzzle: Exclusion 5)

1. 282
2. 14.9
3. 14.1
4. 579
5. 150
6. 38.3
7. 212

Hello, I would appreciate it if you could give apparent KD of MS2 coat protein for each entry below.
1. CUGUACUGAGGAUAUACAUGAGGAUCACCCAUGUGCUCCAGCUAGGAAACUAGCAAAAGUAGAAGGCAGUACAG [Mat - Exclusion 3 - Eli Mod - D60] (Eterna round: R97, puzzle: Exclusion 3)
2. CAGCUGAAUGUGAGGAUAUGUCGAGCGAUAGCUCGAUAGAAGGCACAUGAGGAUCACCCAUGUCUCAACAGCUG [BmEx4/2-C4] (Eterna round: R97, puzzle: Brourd's mod of Exclusion 4)
3. UAGCCUUUAGUUAGGAUAUGAUAUGGGAACCAUUAUCAGAAGGAACAUGAGGAUCACCCAUGUACCGACAGGGA [Eternabot (L2) Solution 9] (Eterna round: R97, puzzle: Brourd's mod of Exclusion 4)
4. UUUAGUUCAGGAUAUGUAGAUUUUAACAUGAGGAUCACCCAUGUAGAUCCUGAAUUAACUACAGAAGGGAACAUUC [Exclusion 5: 2:c] (Eterna round: R96, puzzle: Exclusion 5)

[620, 349, 19.9, 50.8]

Hello, I would appreciate it if you could give apparent KD of MS2 coat protein for each entry below.
1. GCGGUACAUGAGGAUCACCCAUGUCAGGAUAUCCGCUGUAACUUAAUAAAUAAGCGGUGGAGAAGGGACUUCGC [-18.24, -17.54 kcal, 30% A] (Eterna round: R97, puzzle: Exclusion 1)
2. UCUCCACAUGAGGAUCACCCAUGUCAGGAUAUGCUGCGGCUACUAAAAGAGAAUUGCGGCAGAAGGGACACGCC [EX1 B.25] (Eterna round: R97, puzzle: Exclusion 1)
3. UUUUUGGUAGGAUAUACAUGAGGAUCACCCAUGUCCCACCCGUUACCUAUGACCAUAUGUAGAAGGACCAUUUC [Exy#11] (Eterna round: R97, puzzle: Exclusion 3)

[34.2, 68, 24.6]

---

- System: MS2 coat protein
- protocol-notes: apparent KD of MS2 coat protein; designed switch direction (-1 OFF switch, 1 ON switch): -1; higher = weaker reporter binding
- run-conditions: input ligand: none
Kindly supply the reported apparent KD of MS2 coat protein values for the records listed here.

Reference set (4 entries):
UUUUACUCAGGAUAUACAUGAGGAUCACCCAUGUAUAUUGAAGAUAAUACAUGGGAAUGUAGAAGGGAGCUCAU [Omei Ex3 Pseudoloop 18] (Eterna round: R97, puzzle: Exclusion 3) | 179 nM
AAUAACAAUGUGAGGAUAUCUAGAGCCUCGGCUCUAGAGAAGGCACAUGAGGAUCACCCAUGUCUCAAUAACAA [BmEx4/2-E7] (Eterna round: R97, puzzle: Brourd's mod of Exclusion 4) | 52.7 nM
AUUGACUGAGGAUAUUGUACUGCUGACAUGAGGAUCACCCAUGUAUGUUAACUCGGCCGUCGAGAAGGCAGAAAUG [BotMod 21 - Jieux - Exclusion 5] (Eterna round: R97, puzzle: Exclusion 5) | 34.8 nM
AGGUGCUUCUGGAGACAUGAGGAUCACCCAUGUUGAGUUAGCGAGGAUAUCGGUAACCAUUGUUAUGAGAAGGCGCAAACCAGA [Ex NG3 #40] (Eterna round: R96, puzzle: Exclusion NG 3) | 27.8 nM

Proceed to the following item.
If you can, please state the reported apparent KD of MS2 coat protein value of UACAUACGUCGAUCGAAAGACAUGAGGAUCACCCAUGUACGAUGUCAACGUCAAAUCCAAGUAUUUUGCUCUCGUCA [Eternabot (L2) Solution 32] (Eterna round: R97, puzzle: Sensor, turn-off variant 1) .
16.1 nM

---

Kindly supply the reported apparent KD of MS2 coat protein values for the records listed here.
- Tested on: MS2 coat protein
- protocol-notes: apparent KD of MS2 coat protein; higher = weaker reporter binding
- run-conditions: Eterna round: R107; input ligand: arginine 13.2 mM
Give bare numbers, in nM.

Reference set (10 entries):
GCACCAGGUACGGAUACCAGCUAUAGGCCCAAUGGGCGACAUGAGGAUCACCCAUGUAAUGGCCCUUGGCAGCUGUACCUGGUGC [SSThB NP+V+V2 #11 +-Same Structure] | 61.6
GCUCGUUGCAUGGAUACCAGUUGAUAGGCCGCCUCCGGAUACAUGAGGAUCACCCAUGUCAACCCUUGGCAGCCACCCAAUAGGG [theeternabot_exclusion_MS2_Theo_B_27] | 10.4
ACGACAUGAGGAUCACCCAUGUAAGGUGAUACCAGACGAAGUAAUGUCCCUUGGCAGCACACGCAUAGUUGCGAUUAUUGUACGA [JR_SSTheophyA_Sub007] | 83.7
GAUAGUUGAAGGGAUACCAGCCUGGACAUGAGGAUCACCCAUGUAGCAUGUUUGAAACUGGGCCCUUGGCAGCCCAUAUUGUGUA [#11 Same State - Theophylline B] | 16.6
ACAUGAGGAUCACCCAUGUGAAGGCACGAUACCAGCUGAUCCCGUGGCCCUUGGCAGCGUCCGGUUUGGUCCGGCGGAUGAGACG [azamullin] | 19.6
UGUAUGGACUGAAGGAGCGCCUCAAAAUAACAUGAGGAUCACCCAUGUGGCGAAAGCCUUGGGCAGGUAGGUCGCAGUCCAUACU [ArgBX 1 #StaticStem] | 62
CGCGAGACGGCGGCCGCCACUUGUUGUUGGAAACUCGAGUUACAUGAGGAUCACCCAUGUCCUUAAAGGACCGGGCCGUAAGUAA [theeternabot_sameState_MS2_Trp_B_13] | 99.3
CAUGUUGUUGAAGAUACCAGAUUCUGAACGUUCACAUGAGGAUCACCCAUGUAAGUCCGAGUCCCUUGGCAGCUUAUACAGGUGG [Reatlala] | 43.9
UUCCACCUAAAGCGUUGCCCUCGUGAUGAUACCAGUUUCAGCGGUAACCCUUGGCAGCAUCGGACAUGAGGAUCACCCAUGUGGA [theeternabot_exclusion_MS2_Theo_A_47] | 64.9
AUCUCAUAGAGUGAUACCAGACUACAUGAGGAUCACCCAUGUUACAUUUAAAUAUCAUUUGUCCCUUGGCAGCACAUGAAGUACA [JR_Nu_ExcTheophyB_Sub018] | 22.9

Hello, I would appreciate it if you could give apparent KD of MS2 coat protein for each entry below.
1. CUGUACAUCUCGGCCGCCACUGCUGACAUGGGAGUCACCCAUGUCCACAUGAGGAUCACCCAUGUCAGGACCGGGAGGUGUGCAG [SSTryp B #25]
2. GGUUUGCGGCCUGAUACCAGUGAUGGAUGAACCCUAGUCAACAUGAGGAUCACCCAUGUUCACCCUUGGCAGCAGUGACGCUCGA [theeternabot_exclusion_MS2_Theo_B_34]
3. UUUUAACAUGAGGAUCACCCAUGUAAUGAUACCAGAGACGAAAGUCUCCCUUGGCAGCAUAAUCAUUACAUGAGAUGGAAACAUC [Theophylline A 7]
4. AAUGUAUGGCACAUGAGGAUCACCCAUGUGCGAGGACCGGUACGGCCGCCACUCGGUCCUGGGAUCUUACAACUAUACAUUAAUG [XTryp A #20]
5. AAGCCCAGGACGGCCGCCACUGUAAAAUGGUGGUUCGCCUGUAAGAACAUGAGGAUCACCCAUGUCAGGACCGGGUCCACGAGUU [theeternabot_exclusion_MS2_Trp_B_46]
6. AAGCUUCGCAUAGGAAAACUAUGUGAAGCUCGAGGACCGGUACGGCCGCCACUCGUCCUCAACAUGAGGAUCACCCAUGUAAUAA [Mat - Exclusion - Trytophan A - D2]
7. AGUGUUAUAACUGAUACCAGACUUGCGCUUAAACAUGAGGAUCACCCAUGUAAAAUGGUUGUCCCUUGGCAGCAGAAAAUACACA [JR_SSTheophyB_Sub006]
8. UCUUUCUAUGUAGAUACCAGCAUGUUAUCUUUCUUUUGACAUGAGGAUCACCCAUGUAAAUGCCCUUGGCAGCUACAUUUUCUUU [SSTHB #3]

1. 87.4
2. 43.2
3. 29.2
4. 10.3
5. 17.1
6. 20.7
7. 53.2
8. 21

Hello, I would appreciate it if you could give apparent KD of MS2 coat protein for each entry below.
1. UAUAUAGAAGGAAGUCAUAUAGUUGCAGAAGGAGCGUAGGAAACUACAGGUAGGUCGCUGAGGUACAUGAGGAUCACCCAUGUAG [SSArg A #16 Slice of Pi]
2. UGUAUGGACUGAAGGAGCGGUUGAUAACAUGAGCAUCAGCCAUGUAAUAAGGCGAAAGCCAACCAGGUAGGUCGCAGUCCAUACU
3. CACAUGAGGAUCACCCAUGUCUGAACUGAAGGAGCGCUAAAUAAGGCAGGUAGGUCGCGGAAUCCCGGGUGCAUAUGCACCCGGG [9.aB]

1. 31.1
2. 8.26
3. 14.6

Hello, I would appreciate it if you could give apparent KD of MS2 coat protein for each entry below.
1. UGUAUGUGAUCUGAUACCAGAGUGACGCGAAAGCGAACCUGAGGAUCACCCUGGUAAUAACUCCCUUGGCAGCAGAUCGCAUACU
2. UCCAUCGGCGGAAGCCGAUGGUUUACAGAAGGAGCGUGGAUUAACACAGGUAGGUCGCUGGACAUGAGGAUCACCCAUGUGAUAG [SSAA #6]

1: 73.1; 2: 40.1
